- method-summary: loss of swimming-algae plug formation – whole organism, Chlamydomonas reinhardtii, WT vs cilia-less mutant, absorbance, 96-well, primary screen (AID 463189);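 further: 0% = wild type cc124 cells in DMSO and 100% = ciliumless bld1 mutant cells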
- run-conditions: Chlamydomonas reinhardtii gravitaxis, OD600 absorbance, 2 days; at 10 µM
Activity calls are given as the source filed them.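 How the source made its calls: active means inhibition at or above 50% relative to wild type and mutant plate controls; inactive means inhibition below 50%.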
Possible outcomes: active, inactive

| compound | assigned-class |
| --- | --- |
| S=C(S)OC1CC2CC1C1CCCC21 (stereo not drawn) | inactive |
| S=C(S)N1CCCC1 | inactive |
| C[N+](C)(C)CCOC(=O)CCC(=O)OCC[N+](C)(C)C | inactive |
| CCN1CCN(C(=O)N[C@@H](C(=O)N[C@@H]2C(=O)N3[C@@H]2SC(C)(C)[C@@H]3C(=O)O)c2ccccc2)C(=O)C1=O | inactive |
| CSC(=N)N | inactive |
| CCOC(=O)C(C)(C)Oc1ccc(Cl)cc1 | inactive |
| CC(=O)O[C@H]1CC2(C)[C@@H](C[C@@H](O)[C@H]3[C@@]4(C)CC[C@@H](O)[C@@H](C)[C@@H]4CC[C@@]32C)C1=C(CCC=C(C)C)C(=O)O (stereo partly drawn) | inactive |
| CC(CCc1ccc(O)cc1)NCCc1ccc(O)c(O)c1 (stereo not drawn) | inactive |
| C=CCN1CCc2c(cc(O)c(O)c2Br)[C@@H](c2ccccc2)C1 | inactive |
| CN1CCCC1CCOC(C)(c1ccccc1)c1ccc(Cl)cc1 (stereo not drawn) | inactive |
| COc1ccc(-n2c(C)c(C(C)=O)c3cc(O)ccc32)cc1 | inactive |
| Cn1cc(C2=C(c3ccc(Cl)cc3Cl)C(=O)NC2=O)c2ccccc21 | inactive |
| NCCNC(=O)c1ncsc1-c1cccc(F)c1 | inactive |
| COC(=O)c1c(C)[nH]c(C)c1C(=O)c1ccccc1Cc1ccccc1 | inactive |
| CC1(NCC(O)COc2cccc3[nH]ccc23)CCC(C(C)(C)NC(=O)CBr)CC1 (stereo not drawn) | inactive |
| Clc1ccc2nc(N3CCNCC3)nc(-c3ccccc3)c2c1 | active |
| CCCC(=O)NCCc1c2n(c3ccc(OC)cc13)CCCc1ccccc1-2 | inactive |
| Oc1ccc(C2CNCc3sccc32)cc1O (stereo not drawn) | inactive |
| NS(=O)(=O)c1cc2c(cc1C(F)(F)F)NCNS2(=O)=O | inactive |
| CCC1=Nc2ccccc2NC2=C1C(=O)CCC2 | inactive |
| O=P(Cc1nnco1)(c1ccccc1)c1ccccc1 | inactive |
| COc1ccc(-c2ccc(N)[n+](CCCC(=O)O)n2)cc1 | inactive |
| COc1cc(/C=C(\C#N)C(=O)c2ccc(O)c(O)c2)cc(I)c1O | inactive |

* * *

- system-tested: Voltage-gated potassium channel subunit beta-2 (Rattus norvegicus)
- method-summary: enhancers of rat Kvbeta2 NADPH turnover – biochemical, NADPH fluorescence, primary screen (AID 623);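 further: fluorescence intensity change per second fitted from 20 to 320 s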
- run-conditions: Recombinant KvBeta, NADPH fluorescence decrease slope, 10 min; at 10 µM; stronger effect = lower value
Items are presented alongside their recorded NADPH fluorescence slope.
measurement-name: NADPH fluorescence slope

| molecule | system-tested | measured-result |
| --- | --- | --- |
| Cc1cc(NC(=O)CN2CCC(O)(c3cccc(F)c3)CC2)no1 | Voltage-gated potassium channel subunit beta-2 (Rattus norvegicus) | -1.6e-05 |
| O=C(NCC1CCCO1)C1CC(c2ccc(Cl)c(Cl)c2)=NO1 (centres undefined) | Voltage-gated potassium channel subunit beta-2 (Rattus norvegicus) | -3.1e-05 |
| Cc1ccc(-n2ncc3c(N4CCN(c5ccc(F)cc5)CC4)ncnc32)c(C)c1 | Voltage-gated potassium channel subunit beta-2 (Rattus norvegicus) | -0.000115 |
| O=C1C=C(NCc2ccco2)C2(CCCCC2)O1 | Voltage-gated potassium channel subunit beta-2 (Rattus norvegicus) | -5.7e-05 |
| CC(=O)c1c(C)nc(C)nc1NC(=O)Cc1ccccc1 | Voltage-gated potassium channel subunit beta-2 (Rattus norvegicus) | -4.2e-05 |
| Nn1c(CSc2nc3ccccc3o2)nnc1CSc1nc2ccccc2o1 | Voltage-gated potassium channel subunit beta-2 (Rattus norvegicus) | 5.7e-05 |
| Cc1nc(NCCNC(=O)c2ccco2)c2c(C)c(C)sc2n1 | Voltage-gated potassium channel subunit beta-2 (Rattus norvegicus) | 1.6e-05 |
| O=C(O)Cn1cc2c(n1)CCCC2 | Voltage-gated potassium channel subunit beta-2 (Rattus norvegicus) | 6.4e-05 |
| O=C(Nc1ccccc1N1CCN(C(=O)c2ccc(Cl)cc2)CC1)c1cc2ccccc2o1 | Voltage-gated potassium channel subunit beta-2 (Rattus norvegicus) | -6.3e-06 |
| O=C(CSc1nc2c(sc3ccccc32)c(=O)n1Cc1ccco1)NCC1CCCO1 (centres undefined) | Voltage-gated potassium channel subunit beta-2 (Rattus norvegicus) | -4.5e-05 |
| COc1ccc(-c2noc(CCC(=O)NCCCN3CCC(Cc4ccccc4)CC3)n2)cc1 | Voltage-gated potassium channel subunit beta-2 (Rattus norvegicus) | -2.4e-05 |
| COc1cccc(CN(C)CC(=O)NC(=O)NCc2ccco2)c1 | Voltage-gated potassium channel subunit beta-2 (Rattus norvegicus) | 2.9e-05 |
| COC(=O)c1cc(Br)c(=O)n(CCN2CCOCC2)c1 | Voltage-gated potassium channel subunit beta-2 (Rattus norvegicus) | -6.4e-05 |
| COc1ccc2cc([C@H](C)C(=O)O)ccc2c1 | Voltage-gated potassium channel subunit beta-2 (Rattus norvegicus) | -6.7e-05 |
| O=C1CSC(c2cccc(F)c2)N1c1ccccc1F (centres undefined) | Voltage-gated potassium channel subunit beta-2 (Rattus norvegicus) | 6.1e-06 |
| Cc1oc(-c2ccccc2)cc1C(N)=O | Voltage-gated potassium channel subunit beta-2 (Rattus norvegicus) | -1.8e-05 |
| CCN(CC)c1ccc2c(c1)C(=O)N(C)C2=O | Voltage-gated potassium channel subunit beta-2 (Rattus norvegicus) | -6.9e-05 |
| CCCCOc1ccc(NC(=O)Cn2c(=O)ccc3c(C)cc(C)nc32)cc1 | Voltage-gated potassium channel subunit beta-2 (Rattus norvegicus) | 8.6e-06 |
| CCC(Sc1ccc(C(=O)O)cc1)C(=O)O (centres undefined) | Voltage-gated potassium channel subunit beta-2 (Rattus norvegicus) | -2.4e-05 |
| Nc1nonc1-c1noc(CCCCCN2C(=O)c3ccccc3C2=O)n1 | Voltage-gated potassium channel subunit beta-2 (Rattus norvegicus) | -2.2e-05 |
| O=C(Nc1cccc(C(F)(F)F)c1)c1cccnc1N1CCCC1 | Voltage-gated potassium channel subunit beta-2 (Rattus norvegicus) | 2.1e-05 |
| Cc1nnc(SCC(=O)NC(C)(C)C)n1CCc1ccccc1 | Voltage-gated potassium channel subunit beta-2 (Rattus norvegicus) | -4.5e-05 |
| COc1ccc(OCC(=O)N2CCN(C(=O)c3cccs3)CC2)cc1 | Voltage-gated potassium channel subunit beta-2 (Rattus norvegicus) | -5.4e-05 |
| CC1(C)CC(=O)C(C=N)=C(O)C1 | Voltage-gated potassium channel subunit beta-2 (Rattus norvegicus) | -3.8e-05 |
